Biological target: T1, Human BCMA (human, UniProt Q02223 1-54, limits assumed)
T1 construct: Soluble analyte in SPR; construct not described; also called huBCMA; B-cell maturation antigen
T1 sequence (looked up): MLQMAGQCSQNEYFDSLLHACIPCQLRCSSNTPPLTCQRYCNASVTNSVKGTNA
Experiment: SPR, IgG immobilised, 37 C
observationType: kon
Put your answer as a value accompanied by its unit after it.

Consider the following illustrative entries.
{"binder": "L3.PY/L1.FF/H3.TAQ (antibody, V domains shown, IgG) VH: EVQLLESGGGLVQPGGSLRLSCAASGFTFGSYAMTWVRQAPGKGLEWVSAISGSGGNTFYADSVKGRFTISRDNSKNTLYLQMNSLRAEDTAVYYCTRVSPIAAQMDYWGQGTLVTVSS VL: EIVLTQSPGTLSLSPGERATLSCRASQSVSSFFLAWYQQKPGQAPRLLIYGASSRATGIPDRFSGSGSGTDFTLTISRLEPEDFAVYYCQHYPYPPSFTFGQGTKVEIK", "kon": "3.52e+06 M⁻¹ s⁻¹"}
{"binder": "L3.PY/L3.KF/H2.QL (antibody, V domains shown, IgG) VH: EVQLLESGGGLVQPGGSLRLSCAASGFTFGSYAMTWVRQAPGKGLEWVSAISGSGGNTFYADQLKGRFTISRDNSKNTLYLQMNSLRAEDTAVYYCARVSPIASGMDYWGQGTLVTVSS VL: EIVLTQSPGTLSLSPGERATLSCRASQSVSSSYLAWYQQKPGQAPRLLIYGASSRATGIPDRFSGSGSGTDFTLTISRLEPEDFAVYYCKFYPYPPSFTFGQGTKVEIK", "kon": "2.07e+06 M⁻¹ s⁻¹"}

Noted for L3.PY/L3.KF/H3.AQ (antibody, V domains shown, IgG) VH: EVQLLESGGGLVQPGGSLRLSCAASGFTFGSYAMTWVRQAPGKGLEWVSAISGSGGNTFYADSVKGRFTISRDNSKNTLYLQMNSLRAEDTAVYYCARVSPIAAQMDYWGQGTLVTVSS VL: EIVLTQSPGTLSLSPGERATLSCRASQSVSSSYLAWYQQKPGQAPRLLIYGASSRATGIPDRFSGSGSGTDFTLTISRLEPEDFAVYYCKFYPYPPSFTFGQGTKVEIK : its kon reads 3.48e+06 M⁻¹ s⁻¹
